FYI, the data here is from paper PMC8102310.

Molecular target: BRD4 bromodomain (Homo sapiens)
quantity.kind: pIC50
For clarity, pIC50 is expressed as the negative log10 of concentration in mol/L.

Kindly state the measured pIC50 obtained for `CO[C@H]1CC[C@H](n2c([C@@H]3CCCC(=O)N3c3ccc(F)c(F)c3)nc3cc(-c4c(C)noc4C)ccc32)CC1` with BRD4 bromodomain (Homo sapiens).
5.97

###

System: 22Rv1
Assay: Cell proliferation
Type: cell-based
Settings: read-out: IC50 in parental 22Rv1 cells; parental cells, vehicle cultured
quantity.kind: pIC50
To interpret pIC50, take it as minus log10 of a concentration measured in moles per litre.

Query pIC50 on 22Rv1 for `Cc1sc2c(c1C)C(c1ccc(Cl)cc1)=N[C@@H](CC(=O)OC(C)(C)C)c1nnc(C)n1-2`
7.22
